Data origin, for the record: ChEMBL document CHEMBL1201862

# Test system: MDA-MB-231
# METHOD: NCI tumour cell line growth inhibition, 48 h
The source made the active and inactive calls. Cut-off read from the data, not from the text of the source: active = GI50 up to about 1.1 µM and inactive = higher.
I would appreciate it if you answered using one of these outcomes: class 1 (active), class 0 (inactive)

Here are 5 compounds together with their reported answers.
Exercise: Recorded test call requested for "COc1ccc2c[n+](C)c3c4cc(OC)c(OC)cc4ccc3c2c1"
Solution: class 1

Exercise: Recorded test call requested for CC(C)(C)OC(=O)NC(Cc1ccc(OC(C)(C)C)cc1)C(=O)N[C@H]1CCC[C@H]1C(=O)NC(Cc1ccccc1)C(=O)N1CCCC1C(N)=O (stereo partly specified)
Solution: class 0

Exercise: Recorded test call requested for CC(=O)NC(Cc1ccc(O)cc1)C(=O)O (stereo unspecified)
Solution: class 0

Exercise: Recorded test call requested for "CCOC(=O)c1c(N)nn2c1cc1cccccc12"
Solution: class 0

Exercise: Recorded test call requested for C=C1CC(Cn2cc(Br)c(=O)[nH]c2=O)(c2ccc(Br)cc2)OC1=O (stereo unspecified)
Solution: class 0

Others:
Exercise: Recorded test call requested for COC1=CCC2=C(CCN(C(=O)C3CC3)C2Cc2ccc(OC)c(O)c2)C1 (stereo unspecified)
Solution: class 0

====

Known GI50 of a selection of molecules
# Tested on: SF-268
# METHOD: NCI tumour cell line growth inhibition, 48 h
Active and inactive are the calls of the source. Cut-off read from the data, not from the text of the source: active = GI50 up to about 1.1 µM and inactive = higher.

Exercise: Return GI50 for the following molecule: CCN(CC)c1cccc2c1C1(O)CCC3(CC21)OCCCCO3 (stereo not given)
Solution: > 100 µM (inactive)

Exercise: Return GI50 for the following molecule: "N#Cc1c(-c2ccccc2)cc(Nc2ccc(Cl)cc2)n2c1nc1ccccc12"
Solution: 3.71 µM (inactive)

Exercise: Return GI50 for the following molecule: Cc1occ2c1C(=O)CC1C2[C@@H](O)CC2C(C)(C)CCC[C@]12C (stereo not given in full)
Solution: > 100 µM (inactive)

====

# System: SN12C
# METHOD: NCI tumour cell line growth inhibition, 48 h
The source made the active and inactive calls. Cut-off read from the data, not from the text of the source: active = GI50 up to about 1.1 µM and inactive = higher.
Known GI50 of a selection of compounds

Some compounds with known GI50 results, for comparison:
Exercise: Return GI50 for the following compound: "CC(C)(CO)CNc1cc(Cl)nc(N)n1"
Solution: > 100 µM (inactive)

Exercise: Return GI50 for the following compound: "COc1ccc(Cn2c3c(cc(OC(C)=O)c2=O)Cc2ccccc2-3)cc1"
Solution: 7.55 µM (inactive)

Others:
Exercise: Return GI50 for the following compound: "O=C1/C(=C/c2cccc(Br)c2)CSC/C1=C\c1cccc(Br)c1"
Solution: 2.25 µM (inactive)

Exercise: Return GI50 for the following compound: Cc1ccc(S(=O)(=O)OC2CS[S+]([O-])CC2OS(=O)(=O)c2ccc(C)cc2)cc1 (stereo not given)
Solution: 15.2 µM (inactive)

Exercise: Return GI50 for the following compound: O=C1NC2OC(CO)C(O)C(O1)C2O (stereo not given)
Solution: > 100 µM (inactive)

====

# Tested on: NCI/ADR-RES
# METHOD: NCI tumour cell line growth inhibition, 48 h
Activity calls are given as the source filed them. Rule as the data show it: active = GI50 up to about 1.1 µM and inactive = higher.
I would appreciate it if you answered using one of these outcomes: 1 for active, 0 for inactive

Here are 4 molecules together with their reported answers.
Exercise: Recorded test call requested for COc1cc(C=C2C(C)=NN(c3cccc(Cl)c3)C23SCC(=O)N3c2nc3ccccc3s2)ccc1O (stereo not given)
Solution: 0

Exercise: Recorded test call requested for "c1ccc(NCCSc2nc3ccccc3s2)cc1"
Solution: 0

Exercise: Recorded test call requested for COc1ccc2c(c1)N(CCC1CCCCN1C)c1ccccc1S2 (stereo not given)
Solution: 0

Exercise: Recorded test call requested for "CC(C)OC(=O)c1ccc(CCC2=CC(=O)C(Br)=CC2=O)cc1"
Solution: 0

Others:
Exercise: Recorded test call requested for "Cc1[nH]c2ccccc2c1/C=N/c1ccc(/N=C/c2c(C)[nH]c3ccccc23)cc1"
Solution: 0

Exercise: Recorded test call requested for "Fc1ccc(C(OCCN2CC3CCC(C2)N3CCCc2ccccc2)c2ccc(F)cc2)cc1"
Solution: 0

Exercise: Recorded test call requested for "CCCCCCC(=O)OC[n+]1cccc(-c2c(COC(=O)NC(C)C)c(COC(=O)NC(C)C)c3n2CCC3)c1"
Solution: 0

Exercise: Recorded test call requested for "CCc1nc(N)nc(N)c1-c1ccc(NCCc2ccccc2)c([N+](=O)[O-])c1"
Solution: 1

Exercise: Recorded test call requested for COCC(C#N)NC1CC(OC2CC(O)(C(=O)CO)Cc3c(O)c4c(c(O)c32)C(=O)c2c(OC)cccc2C4=O)OC(C)C1O (stereo not given)
Solution: 0

Exercise: Recorded test call requested for "Cc1cnc2[nH]c(-c3cccc(F)c3)cc(=O)c2c1"
Solution: 1

Exercise: Recorded test call requested for "Cn1c(N=P(c2ccccc2)(c2ccccc2)c2ccccc2)c([N+](=O)[O-])c(=O)n(C)c1=O"
Solution: 0

Exercise: Recorded test call requested for "Cc1nnc(N/N=C2/C(=O)Nc3ccccc32)nc1O"
Solution: 0

Exercise: Recorded test call requested for Clc1nc2c(C#Cc3ccccc3)ncnc2n1C1CCCCO1 (stereo not given)
Solution: 0

Exercise: Recorded test call requested for "COc1cc(C(=O)/C=C/c2ccc(OCC#N)cc2)cc(OC)c1OC"
Solution: 0

Exercise: Recorded test call requested for "S=C(N1CCN(c2cccc(Cl)c2)CC1)N1CCN(c2cccc(Cl)c2)CC1"
Solution: 0
